Assay: Metabolic stability in mouse plasma after 2 hrs
Type: ADME, cell-free
Settings: read-out: Stability
Threshold 90%: remaining at 2 h strictly smaller gives yes (1), otherwise no (0).

Recorded results for 3 compounds are shown here.
> print(dat)
                         structure.notation  group.label
1  C=C1[C@H](n2ccc(NC(=O)O[C@@H](C)[C@@H](NC(=O)[C@@H](N)CC3CCCCC3)C(=O)O)nc2=O)O[C@H](CO)[C@H]1O       no (0)
2  C=C1[C@H](n2ccc(NC(=O)O[C@@H](C)[C@@H](NC(=O)[C@@H](N)CC3CCCCC3)C(=O)OC(C)C)nc2=O)O[C@H](CO)[C@H]1O      yes (1)
3  C=C1[C@H](n2ccc(NC(=O)OC[C@@](C)(NC(=O)[C@@H](N)CC3CCCCC3)C(=O)O)nc2=O)O[C@H](CO)[C@H]1O       no (0)

Input: Is the reported remaining at 2 h for "C=C1[C@H](n2ccc(NC(=O)O[C@@H](C)[C@@H](NC(=O)[C@@H](N)Cc3ccc(-c4ccccc4)cc3)C(=O)O)nc2=O)O[C@H](CO)[C@H]1O" strictly below 90%?
Output: yes (1)
